Origin of the recorded values: ChEMBL document CHEMBL1133458

# TARGET_ENTITY: D(3) dopamine receptor (Homo sapiens)
# Sequence (P35462 whole entry): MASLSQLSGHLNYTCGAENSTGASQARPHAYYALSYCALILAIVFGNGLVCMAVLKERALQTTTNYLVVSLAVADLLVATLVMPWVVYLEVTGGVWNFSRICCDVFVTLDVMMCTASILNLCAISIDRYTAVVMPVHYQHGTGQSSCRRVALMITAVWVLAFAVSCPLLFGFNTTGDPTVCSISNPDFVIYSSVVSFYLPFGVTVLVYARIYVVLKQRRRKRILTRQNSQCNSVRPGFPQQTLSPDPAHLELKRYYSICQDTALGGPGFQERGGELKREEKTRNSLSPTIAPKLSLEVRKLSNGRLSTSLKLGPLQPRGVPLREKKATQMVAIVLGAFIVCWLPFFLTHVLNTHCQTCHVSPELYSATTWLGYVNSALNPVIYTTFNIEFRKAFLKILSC
Some molecules, each annotated with its measured pKi.
Schema: pKi number; meaning minus log10 of the concentration expressed in molar units.

Sample CCCN1CCOC2c3cc(O)ccc3[S+]([O-])CC21 (centres undefined) , system: D(3) dopamine receptor (Homo sapiens). Its pKi is 7.54

Sample CCCN1CCO[C@H]2c3cc(O)ccc3SC[C@@H]21 , system: D(3) dopamine receptor (Homo sapiens). Its pKi is 5.52

Sample CCCN1CCO[C@@H]2c3cc(O)ccc3OC[C@H]21 , system: D(3) dopamine receptor (Homo sapiens). Its pKi is 8.85

Sample CCCN1CCOC2c3cc(O)ccc3SCC21 (trans isomer) , system: D(3) dopamine receptor (Homo sapiens). Its pKi is 8.81

Sample CCCN1CCO[C@@H]2c3cc(O)ccc3OC[C@H]21 (relative stereo) , system: D(3) dopamine receptor (Homo sapiens). Its pKi is 7.11

Sample CCCN1CCO[C@@H]2c3cc(O)ccc3SC[C@@H]21 (relative stereo) , system: D(3) dopamine receptor (Homo sapiens). Its pKi is 8.45

Sample CCCN1CCO[C@@H]2c3cc(O)ccc3SC[C@H]21 , system: D(3) dopamine receptor (Homo sapiens). Its pKi is 8.54

* * *

# TARGET_ENTITY: D(2) dopamine receptor (Homo sapiens, UniProt P14416)
# Sequence (P14416 whole entry): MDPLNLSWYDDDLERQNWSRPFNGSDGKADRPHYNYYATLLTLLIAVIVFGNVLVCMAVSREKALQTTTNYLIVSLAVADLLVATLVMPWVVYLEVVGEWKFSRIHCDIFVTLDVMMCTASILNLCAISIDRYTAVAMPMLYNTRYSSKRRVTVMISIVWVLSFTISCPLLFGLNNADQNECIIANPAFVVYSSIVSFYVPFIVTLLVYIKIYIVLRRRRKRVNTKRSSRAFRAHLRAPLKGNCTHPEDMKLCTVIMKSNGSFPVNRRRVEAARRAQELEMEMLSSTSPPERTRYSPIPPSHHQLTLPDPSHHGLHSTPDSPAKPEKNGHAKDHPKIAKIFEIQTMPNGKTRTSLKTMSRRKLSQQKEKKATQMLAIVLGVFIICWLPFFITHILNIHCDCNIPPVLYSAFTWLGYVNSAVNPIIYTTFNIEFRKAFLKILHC
# PROCEDURE_TEXT: Tested for antagonist binding affinity by measuring displacement of [3H]spiperone from Human Dopamine receptor D2L expressed in CHO K-1 cells
# Format: cell-based
REPORTED_METRIC: pKi
Schema: pKi number; meaning minus log10 of the concentration expressed in molar units.

{"COMPOUND": "CCCN1CCO[C@@H]2c3cc(O)ccc3OC[C@H]21", "TARGET_ENTITY": "D(2) dopamine receptor (Homo sapiens, UniProt P14416)", "pKi": 5.93}

Switching to the query record.
Lookup result for CCCN1CCOC2c3cc(O)ccc3SCC21 (trans isomer) ; measured pKi: 6.27

* * *

# TARGET_ENTITY: D(3) dopamine receptor (Rattus norvegicus, UniProt P19020)
# Sequence (P19020 whole entry): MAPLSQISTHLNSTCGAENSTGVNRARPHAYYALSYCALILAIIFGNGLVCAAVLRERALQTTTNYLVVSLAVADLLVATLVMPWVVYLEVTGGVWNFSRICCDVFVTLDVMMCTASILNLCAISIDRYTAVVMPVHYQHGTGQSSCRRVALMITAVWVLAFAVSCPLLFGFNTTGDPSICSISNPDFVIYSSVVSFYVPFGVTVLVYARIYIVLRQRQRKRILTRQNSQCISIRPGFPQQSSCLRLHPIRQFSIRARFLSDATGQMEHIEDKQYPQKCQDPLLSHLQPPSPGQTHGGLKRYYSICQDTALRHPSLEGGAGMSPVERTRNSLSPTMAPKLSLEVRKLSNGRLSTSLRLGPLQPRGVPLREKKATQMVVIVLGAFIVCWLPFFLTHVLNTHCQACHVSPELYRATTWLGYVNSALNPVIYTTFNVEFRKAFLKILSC
# PROCEDURE_TEXT: Agonist activity by measuring the [3H]-thymidine uptake against Dopamine receptor D3 from rat
# Assay type: functional
REPORTED_METRIC: pEC50
Schema: pEC50 number; meaning minus log10 of the concentration expressed in molar units.

Sample CCCN1CCO[C@@H]2c3cc(O)ccc3OC[C@H]21 , system: D(3) dopamine receptor (Rattus norvegicus, UniProt P19020). Its pEC50 is 9.44

* * *

Some compounds, each annotated with its measured EC50.
# TARGET_ENTITY: UniProt:P19020
# PROCEDURE_TEXT: Agonist activity by measuring the [3H]thymidine uptake against Dopamine receptor D3 from rat
# Type: functional
Your reply should be a number followed by the unit it is expressed in.

{"COMPOUND": "CCCN1CCO[C@@H]2c3cc(O)ccc3SC[C@H]21", "TARGET_ENTITY": "UniProt:P19020", "EC50": "0.007 nM"}

Sample CCCN1CCO[C@@H]2c3cc(O)ccc3SC[C@@H]21 (relative stereo) , system: UniProt:P19020. Its EC50 is 36 nM

* * *

# TARGET_ENTITY: D(2) dopamine receptor (Rattus norvegicus)
# Sequence (P61169 whole entry): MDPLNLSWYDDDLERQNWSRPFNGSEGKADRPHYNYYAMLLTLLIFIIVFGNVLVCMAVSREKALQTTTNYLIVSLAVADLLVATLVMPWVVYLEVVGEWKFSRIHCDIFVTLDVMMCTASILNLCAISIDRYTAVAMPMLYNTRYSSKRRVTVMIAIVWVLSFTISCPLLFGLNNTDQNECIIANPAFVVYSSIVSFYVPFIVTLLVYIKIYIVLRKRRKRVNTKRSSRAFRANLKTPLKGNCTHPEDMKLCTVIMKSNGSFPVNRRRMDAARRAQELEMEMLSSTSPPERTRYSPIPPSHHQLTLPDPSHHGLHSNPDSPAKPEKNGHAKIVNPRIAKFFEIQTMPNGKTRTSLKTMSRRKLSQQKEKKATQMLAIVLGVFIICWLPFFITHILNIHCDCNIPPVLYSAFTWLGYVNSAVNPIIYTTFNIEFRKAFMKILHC
# PROCEDURE_TEXT: Agonist activity by measuring the [3H]thymidine uptake against Dopamine receptor D2L from rat
Some molecules, each annotated with its measured pEC50.
Schema: pEC50 number; meaning minus log10 of the concentration expressed in molar units.

Answered examples (2):
{"MOLECULE": "CCCN1CCO[C@@H]2c3cc(O)ccc3SC[C@H]21", "REPORTED_METRIC": "pEC50", "RESULT": 10.89}
{"MOLECULE": "CCCN1CCO[C@@H]2c3cc(O)ccc3SC[C@@H]21 (relative stereo)", "REPORTED_METRIC": "pEC50", "RESULT": 6.91}

Switching to the query record.
Lookup result for CCCN1CCO[C@@H]2c3cc(O)ccc3OC[C@H]21 ; measured pEC50: 8.24

* * *

What follows is a collection of pKi values obtained with D(4) dopamine receptor (Homo sapiens, UniProt P21917).
Sequence (P21917 whole entry): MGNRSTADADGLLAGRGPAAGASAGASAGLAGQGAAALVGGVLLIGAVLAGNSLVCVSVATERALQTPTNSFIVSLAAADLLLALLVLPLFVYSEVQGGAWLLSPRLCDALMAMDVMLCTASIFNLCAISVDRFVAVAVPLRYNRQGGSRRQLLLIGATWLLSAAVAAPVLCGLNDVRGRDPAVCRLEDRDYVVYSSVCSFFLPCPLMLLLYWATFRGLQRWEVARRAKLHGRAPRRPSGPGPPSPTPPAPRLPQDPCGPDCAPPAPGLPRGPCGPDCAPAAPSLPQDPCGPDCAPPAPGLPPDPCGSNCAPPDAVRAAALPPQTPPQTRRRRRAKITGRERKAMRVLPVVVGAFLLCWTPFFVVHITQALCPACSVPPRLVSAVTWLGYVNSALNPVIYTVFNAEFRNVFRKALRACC
Schema: pKi number; meaning minus log10 of the concentration expressed in molar units.

{"COMPOUND": "CCCN1CCO[C@@H]2c3cc(O)ccc3SC[C@@H]21 (relative stereo)", "RESULT": 6.71}

Sample CCCN1CCO[C@@H]2c3cc(O)ccc3OC[C@H]21 , system: D(4) dopamine receptor (Homo sapiens, UniProt P21917). Its pKi is 6.77

Sample CCCN1CCOC2c3cc(O)ccc3SCC21 (trans isomer) , system: D(4) dopamine receptor (Homo sapiens, UniProt P21917). Its pKi is 7.35

Sample CCCN1CCO[C@@H]2c3cc(O)ccc3SC[C@H]21 , system: D(4) dopamine receptor (Homo sapiens, UniProt P21917). Its pKi is 7.75

* * *

# TARGET_ENTITY: D(4) dopamine receptor (Homo sapiens, UniProt P21917)
# PROCEDURE_TEXT: Tested for antagonist binding affinity by measuring displacement of [3H]-spiperone from Human Dopamine receptor D4 expressed in CHO K-1 cells
REPORTED_METRIC: IC50

Lookup result for CCCN1CCOC2c3cc(O)ccc3[S+]([O-])CC21 (stereo unspecified) ; measured IC50: > 10 µM

* * *

# TARGET_ENTITY: D(2) dopamine receptor (Homo sapiens, UniProt P14416)
# PROCEDURE_TEXT: Tested for agonist binding affinity by measuring displacement of [3H]NPA from Human Dopamine receptor D2L expressed in CHO K-1 cells
# Format: cell-based
REPORTED_METRIC: pKi
Schema: pKi number; meaning minus log10 of the concentration expressed in molar units.

Lookup result for CCCN1CCOC2c3cc(O)ccc3[S+]([O-])CC21 (centres undefined) ; measured pKi: 6.71

Lookup result for CCCN1CCO[C@@H]2c3cc(O)ccc3SC[C@H]21 ; measured pKi: 8.94

Lookup result for CCCN1CCO[C@@H]2c3cc(O)ccc3SC[C@@H]21 (relative stereo) ; measured pKi: 7.13

Lookup result for CCCN1CCO[C@H]2c3cc(O)ccc3SC[C@@H]21 ; measured pKi: 6.07

* * *

# TARGET_ENTITY: D(2) dopamine receptor (Homo sapiens)
# PROCEDURE_TEXT: Tested for antagonist binding affinity by measuring displacement of [3H]spiperone from Human Dopamine receptor D2L expressed in CHO K-1 cells
# Format: cell-based
Some compounds, each annotated with its measured Ki.

Answered examples (2):
{"COMPOUND": "CCCN1CCO[C@@H]2c3cc(O)ccc3OC[C@@H]21 (relative stereo)", "Ki": "> 10 µM"}
{"COMPOUND": "CCCN1CCO[C@@H]2c3cc(O)ccc3OC[C@H]21 (relative stereo)", "Ki": "> 10 µM"}

Switching to the query record.
Lookup result for CCCN1CCO[C@H]2c3cc(O)ccc3OC[C@@H]21 ; measured Ki: > 10 µM
